System: Escherichia coli TOP10
assay: shrunken log2 fold change of peptide-encoding DNA abundance (4.5 h post-induction vs induction); higher = less antimicrobial activity (less host growth inhibition)
condition: time post-induction: 4.5 h; library: site-saturation at positions 5, 18, 19, 20
In this section, each of the sequences is paired with its reported shrunken log2 fold change.
API doc: respond with a numeric literal and nothing else, no unit.

Some solved cases for reference:
Inquiry: Item `RRIRLRPPRLPRPRPRPKKNPRP` : provide shrunken log2 fold change
Reply text: 0.144

Inquiry: Look up and state reported shrunken log2 fold change for `RRIRGRPPRLPRPRPRPNMNPRP`
Reply text: 0.255

Inquiry: Input `RRIRKRPPRLPRPRPRPFREPRP` , output reported shrunken log2 fold change.
Reply text: 0.223

Inquiry: Input `RRIRARPPRLPRPRPRPCHPPRP` , output reported shrunken log2 fold change.
Reply text: 0.194

Inquiry: Quote shrunken log2 fold change reported for `RRIRPRPPRLPRPRPRPWFPPRP` please.
Reply text: -0.215

***
Inquiry: Give me measured shrunken log2 fold change, please, for this sequence: `RRIRKRPPRLPRPRPRPGRPPRP`
Reply text: 0.857

Inquiry: Tell me measured shrunken log2 fold change for `RRIRPRPPRLPRPRPRPACIPRP` please.
Reply text: -0.25

Inquiry: For the sequence `RRIRYRPPRLPRPRPRPSCDPRP` , give its measured shrunken log2 fold change value.
Reply text: -0.74

----------
Tested on: Escherichia coli TOP10
assay: shrunken log2 fold change of peptide-encoding DNA abundance (4.5 h post-induction vs induction); higher = less antimicrobial activity (less host growth inhibition)
condition: time post-induction: 4.5 h; library: site-saturation at positions 5, 18, 19, 20
shrunken log2 fold change below -0.02 gives No; shrunken log2 fold change at or above it gives Yes.

Inquiry: Item `RRIRNRPPRLPRPRPRPLETPRP` with shrunken log2 fold change of -0.02 or above?
Reply text: No

Inquiry: Does `RRIRNRPPRLPRPRPRPNHRPRP` have a reported shrunken log2 fold change of at least -0.02?
Reply text: No

Inquiry: Record `RRIRIRPPRLPRPRPRPKDWPRP` ; criterion: shrunken log2 fold change no lower than -0.02. Met?
Reply text: Yes

Inquiry: Exam item: decide whether the reported shrunken log2 fold change for `RRIRGRPPRLPRPRPRPCCKPRP` is at least -0.02.
Reply text: No

Continuing:
Inquiry: API: above_or_equal(metric=shrunken log2 fold change, cutoff=-0.02) for item `RRIRLRPPRLPRPRPRPWVFPRP`
Reply text: Yes

Inquiry: Confirm if shrunken log2 fold change reported for the sequence `RRIRFRPPRLPRPRPRPNSVPRP` is -0.02 or above.
Reply text: No

Inquiry: hey, is shrunken log2 fold change for this one >= -0.02? `RRIRDRPPRLPRPRPRPHCEPRP`
Reply text: No

Inquiry: Form field: shrunken log2 fold change at least -0.02? Entry: `RRIRQRPPRLPRPRPRPNQAPRP`
Reply text: No

Inquiry: For this sequence, is measured shrunken log2 fold change -0.02 or higher? `RRIRDRPPRLPRPRPRPSCTPRP`
Reply text: No

Inquiry: Could you tell me if the measured shrunken log2 fold change of `RRIRKRPPRLPRPRPRPTIGPRP` reaches -0.02 or more?
Reply text: Yes

Inquiry: I'd appreciate it if you could say whether `RRIRERPPRLPRPRPRPSVNPRP` has shrunken log2 fold change at least equal to -0.02.
Reply text: No

Inquiry: State whether the measured shrunken log2 fold change reaches -0.02, counting equality as reaching it, for `RRIRFRPPRLPRPRPRPCPTPRP`
Reply text: No

Inquiry: Does shrunken log2 fold change meet or surpass -0.02 for `RRIRSRPPRLPRPRPRPYHRPRP` ?
Reply text: No

Inquiry: Does the sequence `RRIRARPPRLPRPRPRPENTPRP` have recorded shrunken log2 fold change that is -0.02 or more?
Reply text: Yes

Inquiry: Dear colleague, could you confirm whether `RRIRHRPPRLPRPRPRPFSNPRP` has shrunken log2 fold change at or above -0.02?
Reply text: No

Inquiry: // inclusive: shrunken log2 fold change at least -0.02? input: `RRIRRRPPRLPRPRPRPGIPPRP`
Reply text: Yes

Inquiry: In plain terms: is recorded shrunken log2 fold change at least -0.02 for `RRIRTRPPRLPRPRPRPIDNPRP` ?
Reply text: No

Inquiry: Could you please find out whether `RRIRSRPPRLPRPRPRPADWPRP` has shrunken log2 fold change that meets -0.02 or exceeds it?
Reply text: Yes

Inquiry: API: above_or_equal(metric=shrunken log2 fold change, cutoff=-0.02) for item `RRIRNRPPRLPRPRPRPCQPPRP`
Reply text: No

Inquiry: Threshold query (shrunken log2 fold change >= -0.02) on `RRIRERPPRLPRPRPRPQMEPRP`
Reply text: Yes

Inquiry: Check the entry `RRIRYRPPRLPRPRPRPKPHPRP` : does shrunken log2 fold change equal or exceed -0.02?
Reply text: No

----------
Tested on: Escherichia coli TOP10
assay: shrunken log2 fold change of peptide-encoding DNA abundance (4.5 h post-induction vs induction); higher = less antimicrobial activity (less host growth inhibition)
condition: time post-induction: 4.5 h; library: site-saturation at positions 5, 18, 19, 20
Examples of sequences with documented shrunken log2 fold change follow.

Inquiry: Input `RRIRFRPPRLPRPRPRPFAHPRP` , output reported shrunken log2 fold change.
Reply text: -0.0794

Inquiry: Recall and state the measured shrunken log2 fold change for `RRIRTRPPRLPRPRPRPIDDPRP` .
Reply text: -0.498

Inquiry: Assign shrunken log2 fold change to the following record: `RRIRWRPPRLPRPRPRPRSKPRP`
Reply text: 0.118

Inquiry: Hello, please tell me recorded shrunken log2 fold change for this one: `RRIRSRPPRLPRPRPRPPDMPRP`
Reply text: -0.188

Inquiry: Give the reported value of shrunken log2 fold change for this record: `RRIRSRPPRLPRPRPRPWGDPRP`
Reply text: -0.077

Inquiry: Input `RRIRDRPPRLPRPRPRPWYHPRP` , output reported shrunken log2 fold change.
Reply text: -0.0258

Inquiry: Report shrunken log2 fold change for `RRIRGRPPRLPRPRPRPQVLPRP`
Reply text: 0.0422

Read the next record carefully.
Inquiry: Return shrunken log2 fold change (reported value) for this sequence: `RRIRWRPPRLPRPRPRPLWEPRP`
Reply text: 0.0357

----------
Items are presented alongside their recorded shrunken log2 fold change.
Test system: Escherichia coli TOP10
assay: shrunken log2 fold change of peptide-encoding DNA abundance (4.5 h post-induction vs induction); higher = less antimicrobial activity (less host growth inhibition)
condition: time post-induction: 4.5 h; library: site-saturation at positions 5, 18, 19, 20

Check out these entries, answers already filled in.
Inquiry: Output measured shrunken log2 fold change for this item: `RRIRRRPPRLPRPRPRPWPWPRP`
Reply text: 0.0938

Inquiry: Give reported shrunken log2 fold change value for `RRIRFRPPRLPRPRPRPVHGPRP`
Reply text: 0.284

Continuing:
Inquiry: Quick one: give measured shrunken log2 fold change for `RRIRLRPPRLPRPRPRPLPNPRP`
Reply text: 0.11

Inquiry: Report measured shrunken log2 fold change; entry is `RRIRTRPPRLPRPRPRPLKYPRP`
Reply text: -0.641

Inquiry: Give the reported shrunken log2 fold change for this sequence. `RRIRMRPPRLPRPRPRPKEGPRP`
Reply text: -0.01

Inquiry: Let me know recorded shrunken log2 fold change for `RRIRWRPPRLPRPRPRPKTDPRP` , thanks.
Reply text: 0.204

Inquiry: Using the record for `RRIRKRPPRLPRPRPRPDPHPRP` , state its measured shrunken log2 fold change.
Reply text: -0.0362

Inquiry: Give shrunken log2 fold change for `RRIRCRPPRLPRPRPRPWQGPRP`
Reply text: -0.0944

----------
System: Escherichia coli TOP10;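 further: peptides expressed intracellularly from a pBAD plasmid library in pooled LB shake-flask culture, induced with 0.3% L-arabinose, DNA abundance read by NGS, three biological replicates, DESeq2 with apeglm shrinkage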
assay: shrunken log2 fold change of peptide-encoding DNA abundance (4.5 h post-induction vs induction); higher = less antimicrobial activity (less host growth inhibition)
condition: time post-induction: 4.5 h; library: site-saturation at positions 5, 18, 19, 20
endpoint: shrunken log2 fold change
Reply briefly: the number, and no unit.

Field: example entries. Status: answers known.
Inquiry: Let me know recorded shrunken log2 fold change for `RRIRDRPPRLPRPRPRPKVVPRP` , thanks.
Reply text: -0.01

Inquiry: Output measured shrunken log2 fold change for this item: `RRIRFRPPRLPRPRPRPEKQPRP`
Reply text: -0.0262

Inquiry: Give shrunken log2 fold change for the following sequence: `RRIRWRPPRLPRPRPRPGQEPRP`
Reply text: 0.617

Inquiry: Could you please provide reported shrunken log2 fold change for `RRIRLRPPRLPRPRPRPQSWPRP` ? Thanks!
Reply text: -0.0792

Inquiry: Quick one: give measured shrunken log2 fold change for `RRIRDRPPRLPRPRPRPQDKPRP`
Reply text: -0.592

Inquiry: Give a short answer stating reported shrunken log2 fold change for `RRIRRRPPRLPRPRPRPCLLPRP` .
Reply text: -0.335

Inquiry: Please look at this sequence and report its shrunken log2 fold change: `RRIRVRPPRLPRPRPRPLAPPRP`
Reply text: 0.169

Inquiry: Fill in shrunken log2 fold change for record `RRIRFRPPRLPRPRPRPRHLPRP`
Reply text: -0.0297

Inquiry: Respond only with shrunken log2 fold change recorded for `RRIRGRPPRLPRPRPRPIAIPRP`
Reply text: 0.216

Inquiry: For `RRIRTRPPRLPRPRPRPHEKPRP` , write its shrunken log2 fold change.
Reply text: -0.0018

More entries:
Inquiry: Report measured shrunken log2 fold change; entry is `RRIRYRPPRLPRPRPRPYPTPRP`
Reply text: -0.282

Inquiry: Note down shrunken log2 fold change recorded for `RRIRNRPPRLPRPRPRPVVQPRP`
Reply text: 0.0488

Inquiry: Report measured shrunken log2 fold change; entry is `RRIRHRPPRLPRPRPRPPIPPRP`
Reply text: -0.11

Inquiry: Fill in shrunken log2 fold change for record `RRIRIRPPRLPRPRPRPGNEPRP`
Reply text: -0.0358

Inquiry: Supply recorded shrunken log2 fold change for `RRIRWRPPRLPRPRPRPHWMPRP` here.
Reply text: 0.289

Inquiry: // Input: `RRIRDRPPRLPRPRPRPIWTPRP` . Output its shrunken log2 fold change only.
Reply text: 0.0557

Inquiry: Return shrunken log2 fold change (reported value) for this sequence: `RRIRSRPPRLPRPRPRPDLFPRP`
Reply text: 0.256

Inquiry: Give reported shrunken log2 fold change value for `RRIRIRPPRLPRPRPRPLRMPRP`
Reply text: -0.04
